Hey, just so you know, these numbers are from PubChem BioAssay.

Documented inhibition across a set of molecules
Molecular target: L-lactate dehydrogenase (Plasmodium falciparum (isolate CDC / Honduras)) (UniProt Q27743)
Sequence (Q27743 whole entry, looked up): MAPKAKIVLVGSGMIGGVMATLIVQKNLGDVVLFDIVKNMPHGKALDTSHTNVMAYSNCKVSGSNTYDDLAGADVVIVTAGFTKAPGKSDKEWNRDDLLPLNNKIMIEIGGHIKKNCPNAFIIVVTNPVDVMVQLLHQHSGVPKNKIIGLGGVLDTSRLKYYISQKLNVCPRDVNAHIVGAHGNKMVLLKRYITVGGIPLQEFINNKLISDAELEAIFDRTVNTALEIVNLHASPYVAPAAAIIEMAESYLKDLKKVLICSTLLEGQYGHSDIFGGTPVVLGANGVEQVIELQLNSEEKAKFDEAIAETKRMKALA
Assay: PfLDH activity inhibition – cell lysate, 3D7 strain, counter-screen for P. falciparum growth inhibition project (AID 2304);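 further: 0% = vehicle and 100% = reference inhibitor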
Settings: P. falciparum 3D7 crude extract, LDH APAD/NBT absorbance; at 2 µM; stronger effect = higher value
The source made the active and inactive calls. How the calls were made is not given here.
endpoint: inhibition

In [3]: df
Out[3]:
                                    molecule    endpoint     assay_value
 0  CC(C)c1ccc2c(c1)c(SC(C)(C)C)c(CC(C)(C)C#N)n2Cc1ccc(Cl)cc1  inhibition   8% (inactive)
 1  O=C(NC1CCCc2ccccc21)[C@@H]1CCCN1C(=O)c1ccc(O)c(-c2cccc([N+](=O)[O-])c2)c1 (stereo partly drawn)  inhibition   5% (inactive)
 2  COc1ccc(CCNC(=O)c2cc(C)ccc2O)cc1-c1ccc(C(C)(C)C)cc1  inhibition  -6% (inactive)
 3  CC(C)NCc1ccc(-c2cccc(-c3nc4ccc(F)cc4[nH]3)c2)cc1  inhibition  -4% (inactive)
 4  CC(=O)c1c[nH]c2ccc(/C=C/C(=O)NC3CCC(CCN4CCc5ccc(C#N)cc5CC4)CC3)cc12 (stereo not drawn)  inhibition   9% (inactive)
 5  O=C(Cc1ccccc1)NC1(c2ccccc2)CCN(CCc2c[nH]c3ccc(F)cc23)CC1  inhibition   2% (inactive)
 6      COc1ccc(OC)c(C=NNc2nc3ccccc3[nH]2)c1  inhibition   7% (inactive)
 7  Cc1nc2c(c(O)c1Cl)-c1ccc(Oc3cccc(C(F)(F)F)c3)cc1C2=O  inhibition  -6% (inactive)
 8  CN(C)S(=O)(=O)c1ccc(Nc2nc(NCCC3C=NC=N3)nc3cc[nH]c(=O)c23)cc1 (stereo not drawn)  inhibition   2% (inactive)
 9  O=C(Nc1ccc(-c2csc(-c3nc4ccccc4[nH]3)c2)cc1)Nc1ccc(Cl)c(Cl)c1  inhibition  -6% (inactive)
10  COC(=O)c1cccc(CNCc2ccc(-c3ccc(-c4nc5ccc(F)cc5[nH]4)cc3)cc2)c1  inhibition   2% (inactive)
11  Cc1noc(C)c1-c1ccc2c(Nc3nccc4ccccc34)c(C(N)=O)cnc2c1  inhibition   1% (inactive)
12  CCCC(CNCc1cccc(OC(F)(F)F)c1)CNc1cc(=O)c2ccccc2[nH]1 (stereo not drawn)  inhibition  -2% (inactive)
13  O=C(NC1CCN(Cc2ccccc2)CC1)c1ccc(-c2nc3cc(Cl)c(Cl)cc3[nH]2)s1  inhibition  -1% (inactive)
14  O=C(O[C@H]1CN[C@H](C#Cc2cc3c(Nc4ccc(OCc5cccc(F)c5)c(Cl)c4)ncnc3s2)C1)N1CCCC1  inhibition  -7% (inactive)
15  CCN(CCCN1CCCCC1)c1cc(C)nc(Nc2ccc(Cl)cc2C)n1  inhibition   2% (inactive)
16  CN(C)C(=O)n1cnc(S(=O)(=O)N(C)c2ccc(Cl)cc2)n1  inhibition   3% (inactive)
17  Cc1cc(N2CCCN(CC3CCCCC3)CC2)nc(Nc2ccc(Br)cc2)n1  inhibition  -1% (inactive)
18  COc1c(C2CCN(CCCCNC(=O)c3cc(-c4ccc(Cl)cc4)sc3C)CC2)ccc2c1CCCC2  inhibition   2% (inactive)
19  CC(O)CNc1nc2ccccc2n1CC(=O)Nc1cccc(C(=O)Nc2cccc(C(F)(F)F)c2)c1 (stereo not drawn)  inhibition   0% (inactive)
20  Cc1cc(N[C@@H](CC(C)C)C(=O)NC2CCCC2)nc(NCCc2ccc(F)cc2)n1  inhibition  -2% (inactive)
21  COc1ccc(CNC(=O)NC2CCN(c3ccnc(Nc4ccc(F)cc4)n3)CC2)cc1  inhibition  -6% (inactive)
22  COc1cc(C(=O)NC2CCc3ccccc32)cc(Cl)c1OC (stereo not drawn)  inhibition  -4% (inactive)
23  CCc1cn(C)c2c(N3CCCC3=O)cc(C(=O)N[C@@H](Cc3ccccc3)[C@H](O)CNC(C)(C)CCCC(C)C)cc12  inhibition  -4% (inactive)
24  Cc1cc(C)c(S(=O)(=O)N2CCCCC(c3cccc(C(F)(F)F)c3)=N2)c(C)c1  inhibition  -2% (inactive)
25  CN(C(=O)/C=C/c1cc(C(F)(F)F)ccc1F)C1CCN(CCCCCNC(=O)/C=C/c2ccc(Cl)c(Cl)c2)CC1  inhibition   3% (inactive)
26  CN1CCN(CCNc2c3ccccc3nc3ccc4ccccc4c23)CC1  inhibition  -6% (inactive)
27  c1cc(CNCC2CCCO2)cc(-c2ccc(-c3nc4ccccc4[nH]3)s2)c1 (stereo not drawn)  inhibition  -2% (inactive)
28  NC(=O)c1ccc(C(=O)Nc2cccc(-c3ccc(-c4nc5ccc(C(F)(F)F)cc5[nH]4)cc3)c2)cc1  inhibition  -1% (inactive)
29  O=C(Nc1cc(F)cc(F)c1)N1CCOC(CCN2CCC(c3ccccc3)CC2)(c2ccc(Cl)c(Cl)c2)C1 (stereo not drawn)  inhibition   0% (inactive)
30  O=C(Nc1cccc(CN2CCCN(Cc3ncc[nH]3)CC2)c1)c1ccc2ccccc2c1  inhibition  -1% (inactive)
31  O=C(Nc1ccc(Cl)cc1)Nc1cccc(-c2cccc(-c3nc4ccccc4[nH]3)c2)c1  inhibition   0% (inactive)
32  CC[C@H](C)CNC(=O)c1cccc(-c2ccc(CN3CCC(N4CCCC4)CC3)cc2)n1  inhibition  -2% (inactive)
33  COc1ccc(CNC2CCN(C)CC2)cc1-c1ccc(S(=O)(=O)NCc2ccccc2)s1  inhibition   0% (inactive)
34  CCC1(CC)N=C(N)N=C(N)N1OCc1ccc(Cl)c(Cl)c1  inhibition  -1% (inactive)
35  CN1CCN(c2ccnc3ccc(NC(=O)Nc4ccc(Cl)c(Cl)c4)cc23)CC1  inhibition  -4% (inactive)
36  COc1ccc(C2c3cc(OC)c(OC)cc3C(=NO)C2C)cc1OC (stereo not drawn)  inhibition  -2% (inactive)
37    Cc1cc(Nc2ccc(Oc3ccc(Cl)cc3)cc2)nc(N)n1  inhibition   7% (inactive)
